# System Tested: CCR2 (Homo sapiens, UniProt P41597)
# Construct: Membranes were prepared from THP-1 cells; endogenous in cells
# Sequence (P41597 1-360 isoform P41597-2): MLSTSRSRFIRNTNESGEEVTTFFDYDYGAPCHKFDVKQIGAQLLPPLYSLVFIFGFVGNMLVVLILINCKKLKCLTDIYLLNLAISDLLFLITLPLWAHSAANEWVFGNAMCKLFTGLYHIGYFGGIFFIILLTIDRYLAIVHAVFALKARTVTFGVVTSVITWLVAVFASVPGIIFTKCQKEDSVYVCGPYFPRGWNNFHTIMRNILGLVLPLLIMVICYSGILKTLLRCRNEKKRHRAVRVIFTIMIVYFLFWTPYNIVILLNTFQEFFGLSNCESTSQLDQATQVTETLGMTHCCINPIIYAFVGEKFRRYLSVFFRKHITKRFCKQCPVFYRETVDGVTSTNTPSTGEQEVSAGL
# Test Method Notes: CCR2 receptor membrane binding assay ([125I]MCP-1, THP-1 membranes, SPA beads)
# Particulars: THP-1 cell membranes; [125I]MCP-1 displacement; bound radioactivity after 8 h; read-out: hKi
# Procedure: The above exemplary substances have been tested for binding to CCR2 using a binding assay as outlined herein below: THP-1 cells (human acute monocytic leukaemia cells) were cultured under standardized conditions at 37° C. and 5% CO2 in a humidified incubator. […] Perkin Elmer NEX 332 Jod 125 MCP-1, Stock: 2200 Ci/mmol solved in 2000 μl assay buffer, stored at −20° C. […] Bound radioactivity was determined by scintillation counter after 8 h. […]
pKi: −log10 of the molar value.
Experimental Readout: pKi

> print(dat)
                                   compound  experimental.readout  measured.number
1  COC1COCCC1NC1CCN(C(=O)c2nnc(C)c(NCc3ccc(C(C)(C)C)cc3)c2C)CC1 (stereo not shown)                   pKi             6.89
2  COc1nnc(C(=O)N2CCC(N[C@@H]3CCOC[C@@H]3OC)CC2)c(C)c1NC[C@H]1CCC[C@@H](c2ccc(C)cc2)O1                   pKi             8.40
3  COc1nnc(C(=O)N2CCC(N[C@H]3CCOC[C@H]3OC)CC2)c(C)c1NC[C@H]1CCC[C@@H](c2ccc(C(F)(F)F)cc2)O1                   pKi             9.00
4  COC1COCCC1NC1CCN(C(=O)c2nncc(NCc3ccc(C(C)(C)C)cc3)c2C)CC1 (stereo not shown)                   pKi             7.57
5  CO[C@@H]1COCC[C@@H]1NC1CCN(C(=O)c2nncc(Nc3ccc(Cl)c(Cl)c3)c2C)CC1                   pKi             8.40
6  COc1nnc(C(=O)N2CCC(N[C@H]3CCOC[C@H]3OC)CC2)c(C)c1NC[C@H]1CCC[C@@H](c2ccc(OC(F)(F)F)cc2)O1                   pKi             8.52
7  Cc1c(NC[C@H]2CCC[C@@H](c3ccccc3)C2)cnnc1C(=O)N1CCC(NC2CCOCC2F)CC1 (stereo partly shown)                   pKi             8.15

// provenance: patent US9018212B2
